Each entry below carries its reported Percentage of motility inhibition 0 h.
- Tested on: C. elegans
- experimental.setup: Table S2, C. elegans SS assay, 110 μM, 0 h, averages of 4 data points
Expressed in %, but write only the number.

Request: Please give the measured Percentage of motility inhibition 0 h for this compound: O=C1C[C@@H](c2ccc(O)cc2)Oc2cc(O[C@@H]3O[C@H](CO)[C@@H](O)[C@H](O)[C@H]3O)ccc21 [Neoliquiritin]
Response: 0

Request: Please give the measured Percentage of motility inhibition 0 h for this compound: CC(=O)OC1CCC2(C)C(CCC3(C)C2CC=C2C4CC(C)(C)CCC4(C)CCC23C)C1(C)C(=O)O (stereo not drawn) [3-O-Acetyl-α-boswellic acid]
Response: 20
